Readings of Epitope for the listed molecules
test system: hT40, dGA, dGAE and truncated tau fragments; test: Binding ELISA / epitope mapping of anti-tau scAbs with truncated tau proteins and 13mer peptides; set-up: species or system human; conditions: residue numbers of SEQ ID NO: 1 (hT40); CDR Tables 1-11

molecule | Epitope
CC7: human-specific anti-tau clone, Table 10; SEQ ID NO: 365 (protein, CC7 amino acid sequence) scFv: QVQLQESGPSLVKPSQTLSLTCTVSGFSLTSNAVIWVRQAPGKAPEWVALIDVDGDAAYDPALKSRLSITRDTSKSQVSLSLRSVTTEDTAVYYCARDYGSWGYVSDIDYWGPGLLVTVSSEGKSSGASGESKVDDRVVRTQPSSVSGSLGQRVSITCSGSYITGSSVGWFQQVPGSGLKTVIYDNNDRPSGVPDRFSGSKSGDTATLTISSLQAEDEADYYCASYDTSNIGLFGSGTRLTVLG | 145-157

Ask: Name the reported Epitope value associated with the molecule S1B1: anti-tau clone, Table 2; SEQ ID NO: 412 (protein, S1B1 amino acid sequence) scFv: QVQLQESGPSLVKPSQTLSLTCTVSGFSLSSNSVGWVRQAPGKAPEWVAGIDTDGEEGYNPALNSRLSITRDTSKSQVSLSLSSVTSEDTAVYYCVRSYRTDGLAYGYVQAIDYWGPGLLVTVSSEGKSSGASGESKVDDQAVLTQPSSVSGSLGQRVSITCSGSFIGISSVGWFQQLPGSGLRTVIVASDGRPSGVPDRFSNSKSGNTATLTISSLQAEDEADYFCGSSDRTQYTGVFGSGTRLTVLG
Reply: 367-379
